Source of measurements: patent US12581252B2

Assay: cells
Conditions: Homo sapiens, MCF-10A, read-out: MCF10A IC50
In this section we review reported IC50 values for a set of compounds.

O=C1N[C@@H](c2cc(F)ccc2Cl)c2c(NC(=O)N3C[C@](O)(C(F)(F)F)c4cc(F)ccc43)cc(C3COC3)cc21 (single isomer, unassigned) [Compound I-2655]
< 1000 nM
COc1nc(-c2cc(NC(=O)c3cc(F)cc(C(F)(F)F)c3)c3c(c2)C(=O)NC3c2cc(F)ccc2Cl)cs1 (stereo not shown) [Compound I-1066]
1000 to 5000 nM
Nc1ncc(-c2cc(NC(=O)c3cc(F)cc(C(F)(F)F)c3)c3c(c2)C(=O)N[C@@H]3c2cc(F)ccc2Cl)cn1 (stereo in doubt) [Compound I-1003]
< 1000 nM

Next, consider the following compound.
// lookup IC50 for Cn1nncc1-c1cc(NC(=O)c2cc(F)cc(C(F)(F)F)c2)c2c(c1)C(=O)NC2c1cc(F)ccc1Cl (stereo not shown) [Compound I-1030]
< 1000 nM
